target: Calmodulin-1 (Homo sapiens); test: small molecules binding calmodulin-1 with EGTA – biochemical, small-molecule microarray, Cy5-labelled CALM1, profiling panel (AID 1111); conditions: Cy5-CALM1 binding fluorescence, higher = more signal;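 further: labelled calmodulin applied in Tris saline Tween buffer holding calcium plus EGTA and DTT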
assay_metric: composite z-score
// response body must contain only the number

INSERT INTO results (compound, assay_metric, result_number) VALUES
  ('C=C(CCCC)/C(=C/C[C@H](OC(C)=O)c1ccccc1OCCO)c1cnc2ccccc2c1', 'composite z-score', -0.0602),
  ('CC(=O)NCCCC[C@@H]1NC(=O)[C@H]2C[C@@H](C(=O)O)[C@@H](c3ccc(O)cc3)N2C1=O', 'composite z-score', 0.192),
  ('COCCOC(=O)N1C(=O)[C@@]2(c3cc(C#CC4=CCCCC4)ccc31)[C@H](c1ccc(OCCO)cc1)N1[C@H](c3ccccc3)[C@H](c3ccccc3)OC(=O)[C@H]1[C@@H]2C(=O)N1CCc2cc(OC)c(OC)cc2C1', 'composite z-score', 0.933),
  ('OCCCC1=CC(C2CC2)N(Cc2cccc(OC(F)(F)F)c2)CC1 (stereo not drawn)', 'composite z-score', -0.968),
  ('CCCCCCCCCCC(O)C1C=CC2C(=O)NC(=O)C2N1Nc1ccc(Cl)cc1Cl (stereo not drawn)', 'composite z-score', 1.21),
  ('CCOC(=O)C1=CCC(c2ccc(F)cc2)N(S(=O)(=O)c2ccc(C)cc2)C1 (stereo not drawn)', 'composite z-score', 0.0017),
  ('C=CCN1C(=O)[C@]2(O[C@H](CCO)[C@@H]([Si](C)(C)c3ccc(OC)cc3)[C@@H]2C)c2cc(N(C=O)c3ccccc3)ccc21', 'composite z-score', 0.393);

Next up:
Inquiry: Field request: composite z-score | item: CCC(CC)C(O)C1C=CC2C(=O)N(c3ccccc3)C(=O)C2N1Nc1ccccc1 (stereo not drawn)
Reply text: 1.58

###

assay: hepatitis C replication reporter changes, two-sided – Huh7 cells, luciferase reporter, HCV replication inhibitor project, primary screen (AID 1109); conditions: Huh7 HCV replicon luciferase reporter, 48 h; higher = more signal;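 further: huh7 hepatoma cells harbouring a luciferase neomycin HCV replicon reporter; luciferase luminescence as measure of HCV replicon replication; test concentration not given here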
z-score reference
Form field (numeric): enter value without unit.

Inquiry: # z-score lookup, item COC(=O)[C@@]1(Cc2ccc(OC)cc2)[C@H]2c3cc(C(=O)N4CCCC4)n(CCc4ccc(O)c(O)c4)c3C[C@H]2CN1C(=O)c1ccccc1
Reply text: -1.1

Inquiry: z-score for O=C(NCCN1CCOCC1)[C@@H]1c2ccccc2C(=O)N(Cc2cc(C(F)(F)F)cc(C(F)(F)F)c2)[C@H]1c1ccc(CO)cc1 ?
Reply text: -1.16

###

compounds and their reported composite z-score
assay: probe aShh binding to arrayed compounds – biochemical, biotinylated probe, 635/667 nm fluorescence, primary screen (AID 1114); conditions: small-molecule microarray, higher = more signal;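 further: probe is biotin-labelled aShh protein from a stem cell growth factor screen; measures binding of labelled protein to compounds printed on the slide; score merges feature fluorescence at 667 nm with signal-to-noise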
Enter the number alone.

Below, each entry is followed by its recorded composite z-score result.
INSERT INTO measurements (compound, assay_metric, result_number) VALUES
  ('CC(C)N1CC=CC23O[C@@H]4C=CCOC(=O)[C@@H]4[C@H]2C(=O)N(CCCCCO)[C@@H]3C1=O (stereo partly drawn)', 'composite z-score', 0.0723),
  ('C[N+](C)(C)CCCC[C@@H]1NC(=O)[C@@H]2C[C@H](C(=O)NCCCCCCNC(=O)CS)[C@H](c3ccc(O)cc3)N2C1=O', 'composite z-score', -0.304),
  ('COCCOC(=O)N1C(=O)[C@@]2(c3cc(C#CC4=CCCCC4)ccc31)[C@H](c1ccc(OCCO)cc1)N1[C@H](c3ccccc3)[C@H](c3ccccc3)OC(=O)[C@H]1[C@@H]2C(=O)N1CCc2cc(OC)c(OC)cc2C1', 'composite z-score', 0.0611),
  ('C=C(CCCC)/C(=C/C[C@H](OC(C)=O)c1ccc(OCCO)cc1)c1cnc2ccccc2c1', 'composite z-score', -0.0035),
  ('COc1ccc([Si](C)(C)[C@H]2[C@H](CCO)O[C@@]3(C(=O)N(Cc4ccccc4)c4ccc(N5CCCCC5=O)cc43)[C@@H]2C)cc1', 'composite z-score', -0.156),
  ('COCCOC(=O)N1C(=O)[C@@]2(c3cc(C#CC4(O)CCCCCC4)ccc31)[C@H](C(=O)Nc1nc3ccccc3s1)[C@H]1C(=O)O[C@H](c3ccccc3)[C@H](c3ccccc3)N1[C@@H]2c1ccccc1OCCO', 'composite z-score', 0.321);

Inquiry: For COC(=O)C[C@H]1O[C@@H](CCc2ccccc2)[C@@H](C)[C@@H]1[Si](C)(C)c1ccc(OC)cc1 , what is its reported composite z-score?
Reply text: -0.439
